# assayed system: hAChE (Homo sapiens)
# Construct: purchased Sigma Aldrich
# Sequence (P22303 32-614): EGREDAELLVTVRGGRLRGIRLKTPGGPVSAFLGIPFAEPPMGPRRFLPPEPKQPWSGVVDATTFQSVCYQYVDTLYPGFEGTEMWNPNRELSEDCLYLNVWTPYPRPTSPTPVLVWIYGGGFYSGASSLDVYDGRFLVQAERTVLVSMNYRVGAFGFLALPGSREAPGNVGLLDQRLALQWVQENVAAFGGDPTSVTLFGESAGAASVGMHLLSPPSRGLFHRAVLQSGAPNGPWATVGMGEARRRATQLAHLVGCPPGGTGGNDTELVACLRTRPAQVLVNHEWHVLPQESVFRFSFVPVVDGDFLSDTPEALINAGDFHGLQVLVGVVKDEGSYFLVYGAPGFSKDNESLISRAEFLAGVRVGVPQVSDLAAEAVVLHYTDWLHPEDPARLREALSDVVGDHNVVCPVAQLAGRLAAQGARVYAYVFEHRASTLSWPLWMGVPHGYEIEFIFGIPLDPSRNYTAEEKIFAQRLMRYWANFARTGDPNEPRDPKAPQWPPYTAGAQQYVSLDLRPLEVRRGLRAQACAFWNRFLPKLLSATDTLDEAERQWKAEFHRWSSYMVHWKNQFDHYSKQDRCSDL
# assay method text: biochemical
# assay context: hAChE from human erythrocytes; mean ± SD of three experiments
Exercise: state measured IC50 for each of the molecules provided.

| molecule | reported |
| --- | --- |
| CC1(C)CC[C@]2(C(=O)NCCCCNc3c4c(nc5cc(F)ccc35)CCCC4)CC[C@]3(C)C(=CCC4[C@@]5(C)CC[C@H](O)C(C)(C)C5CC[C@]43C)C2C1 (some centres unmarked) | > 10 µM |

Bench note: what IC50 did CC1(C)CC[C@]2(C(=O)NCCCNc3c4c(nc5c(Br)cccc35)CCCC4)CC[C@]3(C)C(=CCC4[C@@]5(C)CC[C@H](O)C(C)(C)C5CC[C@]43C)C2C1 (some centres unmarked) [Compound E2] show?
> 10 µM

###

# assayed system: hBuChE (Homo sapiens, UniProt P06276)
# Construct: purchased Sigma Aldrich
# Sequence (P06276 29-602): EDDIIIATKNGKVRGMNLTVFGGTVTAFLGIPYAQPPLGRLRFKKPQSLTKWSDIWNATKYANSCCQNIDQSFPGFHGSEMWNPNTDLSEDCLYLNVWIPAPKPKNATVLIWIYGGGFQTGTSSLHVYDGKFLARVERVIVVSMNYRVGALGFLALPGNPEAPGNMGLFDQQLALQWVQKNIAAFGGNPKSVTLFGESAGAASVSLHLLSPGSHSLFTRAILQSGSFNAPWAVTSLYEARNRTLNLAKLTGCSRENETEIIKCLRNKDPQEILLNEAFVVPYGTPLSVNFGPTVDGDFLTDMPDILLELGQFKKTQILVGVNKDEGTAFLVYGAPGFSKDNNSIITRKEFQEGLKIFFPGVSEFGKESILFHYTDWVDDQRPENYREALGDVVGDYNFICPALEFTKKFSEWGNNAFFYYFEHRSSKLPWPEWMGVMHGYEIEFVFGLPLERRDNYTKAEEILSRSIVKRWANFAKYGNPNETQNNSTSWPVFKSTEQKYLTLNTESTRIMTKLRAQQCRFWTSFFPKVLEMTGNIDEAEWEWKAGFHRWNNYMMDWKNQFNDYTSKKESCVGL
# assay method text: hBuChE inhibition, Ellman's method
# Type: biochemical
# assay context: hBuChE from human serum; mean ± SD of three experiments; read-out: IC50 hBuChE
Exercise: state measured IC50 for each of the compounds provided.
One number for each entry, in µM.

| compound | IC50 (µM) |
| --- | --- |
| CC1(C)CC[C@]2(C(=O)NCCCCCNc3c4c(nc5ccccc35)CCCC4)CC[C@]3(C)C(=CCC4[C@@]5(C)CC[C@H](O)C(C)(C)C5CC[C@]43C)C2C1 (some centres unmarked) | 2.78 |

Alright, here's another compound for you.
Bench note: what IC50 did CC1(C)CC[C@]2(C(=O)NCCCCCCNc3c4c(nc5c(F)cccc35)CCCC4)CC[C@]3(C)C(=CCC4[C@@]5(C)CC[C@H](O)C(C)(C)C5CC[C@]43C)C2C1 (some centres unmarked) show?
3.81

###

Exercise: state measured pIC50 for each of the compounds provided.
# assayed system: hBuChE (Homo sapiens)
# Construct: purchased Sigma Aldrich
# assay method text: hBuChE inhibition, Ellman's method
# Format: biochemical
# assay context: IC50 hBuChE, hBuChE from human serum; mean ± SD of three experiments
pIC50: −log10 of the molar value.

Worked cases, pIC50 given:
| compound | quantity kind | reported |
| --- | --- | --- |
| CC1(C)CC[C@]2(C(=O)NCCCNc3c4c(nc5cc(F)ccc35)CCCC4)CC[C@]3(C)C(=CCC4[C@@]5(C)CC[C@H](O)C(C)(C)C5CC[C@]43C)C2C1 (some centres unmarked) | pIC50 | < 5.00 |
| CC1(C)CC[C@]2(C(=O)NCCCCCCNc3c4c(nc5cc(Cl)ccc35)CCCC4)CC[C@]3(C)C(=CCC4[C@@]5(C)CC[C@H](O)C(C)(C)C5CC[C@]43C)C2C1 (some centres unmarked) | pIC50 | < 5.00 |
| CC1(C)CC[C@]2(C(=O)NCCCNc3c4c(nc5c(F)cccc35)CCCC4)CC[C@]3(C)C(=CCC4[C@@]5(C)CC[C@H](O)C(C)(C)C5CC[C@]43C)C2C1 (some centres unmarked) | pIC50 | 6.04 |
| CC1(C)CC[C@]2(C(=O)NCCCCNc3c4c(nc5cc(F)ccc35)CCCC4)CC[C@]3(C)C(=CCC4[C@@]5(C)CC[C@H](O)C(C)(C)C5CC[C@]43C)C2C1 (some centres unmarked) | pIC50 | < 5.00 |

Alright, here's another compound for you.
Bench note: what pIC50 did CC1(C)CC[C@]2(C(=O)NCCCNc3c4c(nc5c(Br)cccc35)CCCC4)CC[C@]3(C)C(=CCC4[C@@]5(C)CC[C@H](O)C(C)(C)C5CC[C@]43C)C2C1 (some centres unmarked) [Compound E2] show?
< 5.00
